Test: total protein half-life in vivo (active degradation + dilution); higher = more stable protein
Conditions: E. coli NCM3722 delta-clpP delta-lon delta-hslV; growth: N-lim chemostat; doubling time 6 h
total protein half-life in vivo values for the sequences below.
Return type: number; implicit unit h.

Example results:
MLSKQIPLGIYEKALPAGECWLERLQLAKTLGFDFVEMSVDETDDRLSRLNWSREQRLALVNAIVETGVRVPSMCLSAHRRFPLGSEDDAVRAQGLEIMRKAIQFAQDVGIRVIQLAGYDVYYQEANNETRRRFRDGLKESVEMASRAQVTLAMEIMDYPLMSSISKALGYAHYLNNPWFQLYPDIGNLSAWDNDVQMELQAGIGHIVAVHVKDTKPGVFKNVPFGEGVVDFERCFETLKQSGYCGPYLIEMWSETAEDPAAEVAKARDWVKARMAKAGMVEAA	5.97
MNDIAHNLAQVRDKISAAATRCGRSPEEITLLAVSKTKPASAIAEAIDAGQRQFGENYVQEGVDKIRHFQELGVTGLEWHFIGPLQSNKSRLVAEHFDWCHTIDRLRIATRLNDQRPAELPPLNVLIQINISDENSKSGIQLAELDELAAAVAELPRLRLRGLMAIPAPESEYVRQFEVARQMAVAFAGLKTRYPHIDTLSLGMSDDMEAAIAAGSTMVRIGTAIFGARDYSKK	4.54

Moving on to another sequence below.
# sequence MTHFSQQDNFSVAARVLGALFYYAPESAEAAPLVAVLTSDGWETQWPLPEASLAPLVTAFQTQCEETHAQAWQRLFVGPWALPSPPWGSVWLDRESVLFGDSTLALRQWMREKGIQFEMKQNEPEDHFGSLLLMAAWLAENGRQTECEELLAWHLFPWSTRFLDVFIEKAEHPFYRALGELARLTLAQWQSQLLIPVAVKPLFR ; its total protein half-life in vivo = 3.98

====

Test: total protein half-life in vivo (active degradation + dilution); higher = more stable protein
Settings: wild type E. coli NCM3722; growth: N-lim chemostat; doubling time 6 h
total protein half-life in vivo values for the sequences below.
Return type: number; implicit unit h.

MLKTIRKHGITLALFAAGSTGLTAAINQMTKTTIAEQASLQQKALFDQVLPAERYNNALAQSCYLVTAPELGKGEHRVYIAKQDDKPVAAVLEATAPDGYSGAIQLLVGADFNGTVLGTRVTEHHETPGLGDKIELRLSDWITHFAGKKISGADDAHWAVKKDGGDFDQFTGATITPRAVVNAVKRAGLYAQTLPAQLSQLPACGE	5.75
MSHTIRDKQKLKARASKIQGQVVALKKMLDEPHECAAVLQQIAAIRGAVNGLMREVIKGHLTEHIVHQGDELKREEDLDVVLKVLDSYIK	5.53

# sequence MATAKKITIHDVALAAGVSVSTVSLVLSGKGRISTATGERVNAAIEELGFVRNRQASALRGGQSGVIGLIVRDLSAPFYAELTAGLTEALEAQGRMVFLLHGGKDGEQLAQRFSLLLNQGVDGVVIAGAAGSSDDLRRMAEEKAIPVIFASRASYLDDVDTVRPDNMQAAQLLTEHLIRNGHQRIAWLGGQSSSLTRAERVGGYCATLLKFGLPFHSDWVLECTSSQKQAAEAITALLRHNPTISAVVCYNETIAMGAWFGLLKAGRQSGESGVDRYFEQQVSLAAFTDATPTTLDDIPVTWASTPARELGITLADRMMQKITHEETHSRNLIIPARLIAAK ; its total protein half-life in vivo = 4.64
